The reported numbers originate from ChEMBL document CHEMBL1135420.

4-hydroxyphenylpyruvate dioxygenase (Sus scrofa) data, read-out IC50
Sequence (Q02110 whole entry): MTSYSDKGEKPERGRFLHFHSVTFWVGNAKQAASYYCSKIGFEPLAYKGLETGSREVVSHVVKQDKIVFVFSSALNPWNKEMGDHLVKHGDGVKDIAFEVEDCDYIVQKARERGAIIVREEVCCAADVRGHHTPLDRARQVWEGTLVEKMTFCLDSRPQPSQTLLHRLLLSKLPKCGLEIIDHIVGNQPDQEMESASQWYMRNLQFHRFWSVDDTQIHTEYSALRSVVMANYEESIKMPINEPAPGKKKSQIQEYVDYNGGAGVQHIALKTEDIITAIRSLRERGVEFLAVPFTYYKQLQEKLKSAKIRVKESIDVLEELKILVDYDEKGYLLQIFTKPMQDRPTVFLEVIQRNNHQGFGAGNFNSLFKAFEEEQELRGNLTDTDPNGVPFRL
property.measured: IC50 (nM)

Please review the entries below; each comes with its answer.
INSERT INTO results (structure_smiles_string, value) VALUES
  ('O=C1CCCC(Cl)=C1C(=O)c1ccccc1[N+](=O)[O-]', 64000),
  ('O=C1CCCC/C1=C(/O)c1ccccc1[N+](=O)[O-]', 700);

(a) O=C1CCCC(=O)C1=C(O)c1ccccc1[N+](=O)[O-]
(b) O=C1CCC=C(Cl)/C1=C(/O)c1ccccc1[N+](=O)[O-]
(c) O=C1CCCC(=O)N1Cc1ccccc1[N+](=O)[O-]
stdin: Would you mind ranking these compounds by ascending IC50? Please list the labels in the order you were asked to rank them.
stdout: a, b, c
(a: 160 nM, b: 530 nM, c: 250000 nM)
